TARGET_UNDER_TEST: Short transient receptor potential channel 4 (Mus musculus) (UniProt Q9QUQ5)
Sequence (Q9QUQ5 whole entry, looked up): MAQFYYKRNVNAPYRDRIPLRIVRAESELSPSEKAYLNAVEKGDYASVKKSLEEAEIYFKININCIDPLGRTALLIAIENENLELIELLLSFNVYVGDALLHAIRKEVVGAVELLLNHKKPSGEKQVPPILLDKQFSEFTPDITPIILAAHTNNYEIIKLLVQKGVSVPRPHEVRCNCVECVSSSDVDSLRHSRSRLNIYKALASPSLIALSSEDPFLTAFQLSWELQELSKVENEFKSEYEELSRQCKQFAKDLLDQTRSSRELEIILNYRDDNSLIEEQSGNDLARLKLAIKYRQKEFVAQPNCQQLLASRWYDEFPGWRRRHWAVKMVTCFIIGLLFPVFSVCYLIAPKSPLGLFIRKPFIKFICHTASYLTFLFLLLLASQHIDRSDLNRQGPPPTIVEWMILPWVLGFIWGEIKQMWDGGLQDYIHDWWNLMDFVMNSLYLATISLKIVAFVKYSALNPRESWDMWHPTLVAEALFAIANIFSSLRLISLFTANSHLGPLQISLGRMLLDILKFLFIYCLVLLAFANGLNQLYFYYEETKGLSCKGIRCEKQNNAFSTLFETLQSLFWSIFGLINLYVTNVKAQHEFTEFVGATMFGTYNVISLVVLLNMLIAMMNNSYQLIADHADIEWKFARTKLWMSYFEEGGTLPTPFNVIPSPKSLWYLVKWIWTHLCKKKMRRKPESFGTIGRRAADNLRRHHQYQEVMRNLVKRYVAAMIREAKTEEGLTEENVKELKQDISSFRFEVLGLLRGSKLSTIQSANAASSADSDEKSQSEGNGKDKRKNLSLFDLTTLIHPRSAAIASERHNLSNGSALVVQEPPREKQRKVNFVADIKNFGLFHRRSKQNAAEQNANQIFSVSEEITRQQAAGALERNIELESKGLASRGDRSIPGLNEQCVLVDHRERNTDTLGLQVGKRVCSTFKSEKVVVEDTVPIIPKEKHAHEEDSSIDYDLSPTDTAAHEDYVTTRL
TEST_DETAILS: blockers of DAMGO-evoked TRPC4 calcium flux – cell-based, second round, Fluo4, HEK293 TRPC4beta/mu-opioid, 1 µM, confirmation (AID 2637)
CONDITION_NOTES: at 1 µM
Activity calls are given as the source filed them.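 The calls were made as follows: active = calcium signal ratio cut to more than 3 SD under the fully stimulated control mean yet still positive, in both repeats and the primary screen; inactive = the rest.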
# output must be one of active, inactive

Completed entries (count: 5):
COMPOUND | CLASSIFICATION
CC(Oc1ccc(Cl)cc1Cl)c1nc(-c2ccccn2)no1 (stereo unspecified) | active
Cc1ccn(CC(=O)NC2CCCN(Cc3ccc(CC(C)C)cc3)C2)n1 (stereo unspecified) | inactive
Cc1ccc(CS(=O)(=O)CCC(=O)NCCC2=CCCCC2)cc1 | inactive
Cc1cc(N2CCCCC2)nc(NCc2ccccc2)n1 | inactive
CC1(C)CC2CC(C)(CN2C(=O)c2cc(-c3ccc(O)cc3)on2)C1 (stereo unspecified) | inactive

Consider the additional compound presented here.
Outcome logged for `CC(C)(C)C(=O)NC(=S)NNC(=O)c1sc2ccccc2c1Cl` in this assay: inactive

----------
TARGET_UNDER_TEST: Short transient receptor potential channel 4 (Mus musculus)
TEST_DETAILS: calcium entry via TRPC4 opening agents – cell-based, HEK293 TRPC4/mu-opioid, Fluo-4 calcium, dose response (AID 434937);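 also: HEK293 cells coexpressing mouse TRPC4 with mu-opioid receptor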
CONDITION_NOTES: HEK293 TRPC4 cells, Fluo-4 calcium fluorescence ratio; series mostly up to 20 µM
Entries with a potency or affinity are not part of this list. Active and inactive are the calls of the source.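 The calls were made as follows: active = primary screen activator hit with a dose response curve and TRPC4 channel activation at any tested dose; inactive = no activation, no dose response, or not a primary hit.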
PROPERTY_LABEL: outcome

Examples with their reported outcome follow.
COMPOUND | TARGET_UNDER_TEST | outcome
O=C(Nc1ccc(Oc2ccccc2)nc1)C1CCN(Cc2ccccc2)CC1 | Short transient receptor potential channel 4 (Mus musculus) | inactive
Cc1ccccc1N(C(=O)c1snc(C(N)=O)c1N)C(C(=O)NC1CCCC1)c1ccco1 (stereo unspecified) | Short transient receptor potential channel 4 (Mus musculus) | inactive
O=[N+]([O-])c1ccc(S(=O)(=O)NCCCc2ccccc2)cc1 | Short transient receptor potential channel 4 (Mus musculus) | inactive
CC(=O)Cc1nsc(NC(=O)c2csc3c2CCCC3)n1 | Short transient receptor potential channel 4 (Mus musculus) | inactive
Cc1cc(S(=O)(=O)NC2CCN(Cc3ccccc3)CC2)c(C)cc1Cl | Short transient receptor potential channel 4 (Mus musculus) | inactive

We next turn to a different compound, shown below.
Can you look up outcome on Short transient receptor potential channel 4 (Mus musculus) for `O=C(NCCc1ccccc1)c1cnc2ccccc2n1` ? inactive

----------
TARGET_UNDER_TEST: Short transient receptor potential channel 4 (Mus musculus) (UniProt Q9QUQ5)
TEST_DETAILS: calcium flux activators in TRPC4/5HT1a cells, counter-screen for TRPC4 activator project, cell-based, second counter screen, HEK293 TRPC4/5HT1a, Fluo-4 (AID 434977)
CONDITION_NOTES: Fluo-4 calcium flux, at 10 µM
Activity calls are given as the source filed them.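 The calls were made as follows: active = calcium signal rise above buffer-control mean plus 5 SD in both duplicates, and also a hit in the primary screen; inactive = the rest.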
Result category, one only: active, inactive

Observe how each entry below is paired with its result.
COMPOUND | TARGET_UNDER_TEST | CLASSIFICATION
CC1CC(C)CN(CCCNC(=O)Cn2cccc2C(=O)c2ccccc2)C1 (configuration not stated) | Short transient receptor potential channel 4 (Mus musculus) (UniProt Q9QUQ5) | active
CCN(CC)CCCN(C(=O)c1cccs1)c1nc(-c2ccc(OC)cc2)cs1 | Short transient receptor potential channel 4 (Mus musculus) (UniProt Q9QUQ5) | inactive
CCN1CCN(c2nc(N)c([N+](=O)[O-])c(Nc3ccc(C)c(C)c3)n2)CC1 | Short transient receptor potential channel 4 (Mus musculus) (UniProt Q9QUQ5) | inactive
CCCCN(CCCC)/C(N)=N/c1nc(C)cc(C)n1 | Short transient receptor potential channel 4 (Mus musculus) (UniProt Q9QUQ5) | inactive
CC1CCc2c(sc(/N=C/N(C)C)c2C#N)C1 (configuration not stated) | Short transient receptor potential channel 4 (Mus musculus) (UniProt Q9QUQ5) | inactive

Hello, I am checking results. What call was entered for COc1cccc(N2C(=O)CC(N3CCN(CCN=CC4=C(O)CC(C)(C)CC4=O)CC3)C2=O)c1 (configuration not stated) ? inactive

What do you have for `CCCn1c(N2CCN(S(=O)(=O)Cc3ccccc3)CC2)nc2ccccc21` ? inactive

Now the compound `Cc1nc(N2CCN(c3ccccn3)CC2)c2c(C)c(C(=O)N3CCN(c4ccccc4F)CC3)sc2n1` inactive

What would you report for `Cc1ccc(Oc2ccccc2NC(=O)CSCC(=O)Nc2cc(C)on2)cc1` ? inactive

Input `CCOC(=O)Cc1csc(NC(=O)NC2(C(F)(F)F)Oc3cc(Cl)c(Cl)cc3O2)n1` inactive

Cool, now OC1(c2cccs2)CN(c2ccc(Cl)cc2)C2=[N+]1CCCC2 (configuration not stated) inactive

Also `Cn1c(N2CCN(C(=O)Nc3ccc(C(F)(F)F)cc3)CC2)nc2ccccc21` ? active

Next entry: `Cc1cc(C)nc(/N=C(\N)N(Cc2ccccc2)Cc2ccccc2)n1` inactive

Would you mind doing `CCN1CCN(c2c(Cl)cccc2NC(=O)c2cc3ccccc3o2)CC1` as well? inactive

Lookup CCOC(=O)C(C)Sc1nc2c(c(=O)[nH]c(=O)n2C)n1Cc1ccc(Cl)cc1 (configuration not stated) inactive

`O=C(CN1CCCC1)N1c2ccccc2Sc2ccc(C(F)(F)F)cc21` ? inactive

Same question for `CCc1nc2ccccc2n1Cc1ccccc1OC` please. inactive

Follow-up entry: `CCOC(=O)C1(CC2CC2)CCN(Cc2cc(Cl)c(O)c(OC)c2)CC1` inactive

Now this one: `O=Cc1c(N2CCCCC2)nc2ccccn2c1=O` inactive

Another compound to look at: `Cc1cccc(Cn2c(N3CCN(c4ccccc4)CC3)nc3c2c(=O)n(C)c(=O)n3C)c1` inactive

Now give it for `Cc1cc(C)c(S(=O)(=O)c2ccccc2C)c(OCC(C)(C)C)n1` too. inactive

Now consider `Cc1cccc(C)c1NC(=O)NCCCN1CCN(c2ccccc2)CC1` . inactive
